System: THRa:RXRa (NR concentration 90 nM, RXRa partner concentration 90 nM)
Experiment: PBM binding z-score (relative to random genomic background probes); higher = stronger binding; sequences stand for … in GC…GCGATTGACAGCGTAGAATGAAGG
OBSERVATION TYPE: PBM binding z-score
# output: bare number, no unit

TAACCAAGGTGAAAGGTCGTTGATGCACGCCTTG	3.33

For record `CGTCCATGGTCAGAGAGGTCAGTGAATGCCGAGT` the listed PBM binding z-score is 2.58

For record `TATACAGGGTCCAAGGCCAGAGTACGAATGTCGA` the listed PBM binding z-score is 0.402

For record `TCTTGTAGATCAGCAGGTTACGAAAGCTGGCCAA` the listed PBM binding z-score is 0.29

For record `CGTCCAAGGTCAGCACGTCAGTGAAAGCGACGTG` the listed PBM binding z-score is 3.43

For record `TCTATTAGTTGAATGGCAACCGACGAGTCCGTTT` the listed PBM binding z-score is -0.116

---

Test system: RARg:RXRa (NR concentration 270 nM, RXRa partner concentration 90 nM)
Experiment: PBM binding z-score (relative to random genomic background probes); higher = stronger binding; sequences stand for … in GC…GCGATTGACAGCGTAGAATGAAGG
# reported PBM binding z-score; entries follow
# output: bare number, no unit

Use the examples below as a reference point.
ATATGTAGGTTACATCCTGGTCATTCAGGCTATG	1.72
AGTCAAAGTTCAGGACGAGGTAACATAAAGCACG	4.89

For record `GCTAGCAGGCCATTTGGGTCACCCAATGACGGGC` the listed PBM binding z-score is 1.52

---

# reported PBM binding z-score; entries follow
System: PPARg:RXRa 270nM:90nM, anti-RXR (NR concentration 270 nM, RXRa partner concentration 90 nM)
Experiment: PBM binding z-score (relative to random genomic background probes); higher = stronger binding; sequences stand for … in GC…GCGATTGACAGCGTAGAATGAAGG
# output: bare number, no unit

CCGAATGGGGCATAAGGTTACCATAAGCCAGCCC	3.95
AGTCAAAGTTCATCTAGGTGACGTAAGATATGCT	6.36
TCATATAGGTAAGAGGTGAAAGTCGGTGTGGTAA	7.24

# ---- query sequence ----
For record `GCTGCTAGGTCAGGTTGGTTAGCTAACGGGTACG` the listed PBM binding z-score is 0.709

---

# reported PBM binding z-score; entries follow
Tested on: PPARg:RXRa DBDmut IVT, anti-RXR (DBD mutation: RXRa K156A/R161A, NR concentration 270 nM, RXRa partner concentration 90 nM)
Experiment: PBM binding z-score (relative to random genomic background probes); higher = stronger binding; sequences stand for … in GC…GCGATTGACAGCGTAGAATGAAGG
# output: bare number, no unit

Use the examples below as a reference point.
CAAACTAGGTCACCGGAAGATCAAAGTCCGCATG	8.57
ATCTCTAGGTAACAAGTTCAATGAAAGAGAGGAC	3.6
GCTTACGGCTCAAAGGTTATAGCATGAATAGAAT	-0.386

For record `AGAACGAGGGCAATCAGTTGATAGCACGGGTGGC` the listed PBM binding z-score is 3.4
